System: SR leukemia
PROTOCOL DETAILS: NCI tumour cell line growth inhibition, 48 h
Where a SMILES comes first, the peptide text is derived from it. [ ]: non-standard residue; d: D form. The star is where a group is joined. Cbz = O=C(OCc1ccccc1)*; Aib = CC(C)(N)C(=O)O; OBn = c1ccc(CO*)cc1
MEASURED METRIC: TGI

INSERT INTO results (molecule, measured_metric, result) VALUES
  ('CN(Cc1cnc2nc(N)nc(N)c2n1)c1ccc(C(=O)N[C@@H](CCS(=O)(=O)O)C(=O)O)cc1', 'TGI', '> 100 µM'),
  ('CC(NC(=O)C(C)(C)NC(=O)C(CC(=O)OCc1ccccc1)NC(=O)OCc1ccccc1)C(N)=O (centres undefined) (Cbz-Asp(OBn)-[Aib]-Ala-NH2; configuration not given here)', 'TGI', '> 100 µM'),
  ('CO/N=C(/C(=O)OC)c1ccccc1COc1ccccc1C(F)(F)F', 'TGI', '79.2 µM'),
  ('CC(C)(C)OC(=O)NC(CSSCC(NC(=O)OC(C)(C)C)C(=O)O)C(=O)O (centres undefined)', 'TGI', '> 100 µM'),
  ('COc1ccc(-c2c(C#N)c(N3CCOCC3)nc3[nH]c(=S)[nH]c(=S)c23)cc1OC', 'TGI', '> 100 µM'),
  ('O=C(O)c1ccc(CNCc2ccccc2)cc1', 'TGI', '> 100 µM'),
  ('Cc1cc(OP2(=O)NCc3ncccc3O2)ccc1Cl (centres undefined)', 'TGI', '> 100 µM'),
  ('NCCCn1c2c(c3ccc([N+](=O)[O-])cc3c1=O)C(=O)c1cc(I)ccc1-2', 'TGI', '0.929 µM'),
  ('CSc1csc(-c2ccc(-c3ccc(-c4cc(SC)cs4)s3)s2)c1', 'TGI', '> 100 µM'),
  ('COc1ccc2oc(=N)c(C(=O)Nc3ccccc3)cc2c1', 'TGI', '> 100 µM'),
  ('CCC(C)(C)n1c(C)nc2c1C(=O)c1ccccc1C2=O', 'TGI', '42.7 µM'),
  ('CC(C)C1CN(C(=O)OCc2ccccc2)C2N1C(=O)C2(C)OCc1ccccc1 (centres undefined)', 'TGI', '98 µM'),
  ('O=Cc1cc2c(cc1-c1cc3c(cc1C=O)OCO3)OCO2', 'TGI', '71 µM'),
  ('Cc1nc2ccccc2c(-n2cccn2)c1CCn1cccn1', 'TGI', '> 100 µM'),
  ('O=C(CC(=O)Nc1ccccc1)NNC(Sc1ccccc1)c1cc(N=Nc2ccc(Br)cc2)ccc1O (centres undefined)', 'TGI', '> 10 µM'),
  ('O=[N+]([O-])c1ccccc1N=Nc1c(O)[nH]c2c(Cl)cc(Cl)cc12', 'TGI', '22.6 µM'),
  ('Cn1c2ccccc2c2c(=S)c3ccccc3ccc21', 'TGI', '> 100 µM'),
  ('CCN(CC)c1ccc(/C=C/c2ccnc3ccccc23)cc1', 'TGI', '> 100 µM'),
  ('Nc1ncc2c(n1)-c1ccccc1OC2N1CCCC1 (centres undefined)', 'TGI', '> 100 µM');

====

Test system: SN12C renal
PROTOCOL DETAILS: NCI tumour cell line growth inhibition, 48 h
Catalogue of compounds with associated TGI
MEASURED METRIC: TGI

INSERT INTO assay_data (compound, measured_metric, result) VALUES
  ('COc1ccc(/C=N/NC(=O)c2ccc(O)c(CN(C)C)c2)cc1', 'TGI', '> 100 µM'),
  ('[N-]=[N+]=CC(=O)OC(CCl)CCl', 'TGI', '> 100 µM'),
  ('CSC[C@H](NC(=O)COc1cccc2cnccc12)C(=O)NC(Cc1ccccc1)C(O)C(=O)N1CSC[C@H]1C(=O)NC(C)(C)C (stereo partly specified)', 'TGI', '> 100 µM'),
  ('COc1cc2c(cc1OCCCN1CCN(CCCOc3cc4c(cc3OC)C(=O)N3CC(F)(F)C[C@H]3C=N4)CC1)N=C[C@@H]1CC(F)(F)CN1C2=O', 'TGI', '19.5 µM'),
  ('C=C(C)CNCCN', 'TGI', '> 100 µM'),
  ('O=C1/C(=C/c2ccc(Cl)cc2)CCCc2ccccc21', 'TGI', '33.3 µM');

Origin of values: PubChem BioAssay (NCI)
